Assay readout: AC50

Q: Tell me reported AC50 for N[C@@H](C(=O)N[C@@H]1C(=O)N2C(C(=O)O)=C(Cl)CC[C@H]12)c1ccccc1 [LORACARBEF ANHYDROUS] , tested with Mu-type opioid receptor (Homo sapiens, UniProt P35372).
Sequence (P35372 whole entry): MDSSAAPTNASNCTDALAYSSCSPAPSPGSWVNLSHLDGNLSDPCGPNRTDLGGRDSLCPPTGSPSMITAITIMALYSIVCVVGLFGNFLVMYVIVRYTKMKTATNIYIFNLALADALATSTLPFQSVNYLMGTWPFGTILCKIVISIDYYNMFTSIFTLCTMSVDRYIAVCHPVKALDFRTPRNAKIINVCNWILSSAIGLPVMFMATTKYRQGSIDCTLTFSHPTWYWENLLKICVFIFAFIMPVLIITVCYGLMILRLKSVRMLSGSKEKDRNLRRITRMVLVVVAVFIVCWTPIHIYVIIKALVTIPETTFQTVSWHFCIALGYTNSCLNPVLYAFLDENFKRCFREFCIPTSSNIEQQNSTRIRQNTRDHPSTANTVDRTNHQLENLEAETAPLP
Ans: > 30 µM

Q: Entry NNc1nnc(NN)c2ccccc12 [DIHYDRALAZINE] , system Mu-type opioid receptor (Homo sapiens, UniProt P35372): what AC50 was measured?; further: assay procedure not described here
Ans: 25.6 µM

Q: Please provide the recorded AC50 for O=[N+]([O-])c1cn2c(n1)OC[C@@H](OCc1ccc(OC(F)(F)F)cc1)C2 , tested on Mu-type opioid receptor (Homo sapiens, UniProt P35372). Further: assay procedure not described here.
Ans: > 30 µM

Q: Requested read-out AC50, target or system Mu-type opioid receptor (Homo sapiens, UniProt P35372), entry Cc1cc(C#N)cc(C)c1Oc1nc(Nc2ccc(C#N)cc2)nc(N)c1Br; further: assay procedure not described here
Ans: 19.1 µM

Q: Enter reported AC50 observed with Mu-type opioid receptor (Homo sapiens, UniProt P35372) for O=c1[nH]c(=O)n([C@H]2C[C@H](O)[C@@H](CO)O2)cc1I
Ans: > 30 µM

Q: Record lookup: for Mu-type opioid receptor (Homo sapiens, UniProt P35372), what AC50 belongs to C=CCc1ccccc1OCC(O)CNC(C)C (stereo unspecified) ?
Ans: > 0.3 µM

Q: // map Cc1oc(=O)oc1CN1CCN(c2cc3c(cc2F)c(=O)c(C(=O)O)c2n3C(C)S2)CC1 (stereo unspecified) to recorded AC50 (system: Mu-type opioid receptor (Homo sapiens, UniProt P35372)); further: assay procedure not described here
Ans: > 30 µM

Q: Form: Entry = NC1=NCC2c3ccccc3Cc3ccccc3N12 (stereo unspecified) [EPINASTINE] | System = Mu-type opioid receptor (Homo sapiens, UniProt P35372) | AC50 = ____; further: assay procedure not described here
Ans: 17.4 µM

Q: Record CC[C@H]1[C@@H](O)[C@@H]2[C@H](CC[C@]3(C)[C@@H]([C@H](C)CCC(=O)O)CC[C@@H]23)[C@@]2(C)CC[C@@H](O)C[C@@H]12 : what is its AC50 with Mu-type opioid receptor (Homo sapiens, UniProt P35372)?
Ans: > 30 µM

Q: Observed AC50 on Mu-type opioid receptor (Homo sapiens, UniProt P35372) for C=C[C@H]1C[N@@]2CC[C@H]1C[C@H]2[C@H](O)c1ccnc2ccc(OC)cc12 , please.
Ans: 8.38 µM

Q: Query AC50 on Mu-type opioid receptor (Homo sapiens, UniProt P35372) for CCOc1ccccc1C(N)=O [ETHENZAMIDE]
Ans: > 30 µM

Q: Short answer please: AC50, Mu-type opioid receptor (Homo sapiens, UniProt P35372), entry CS(=O)(=O)c1ccc(C2=C(c3ccccc3)C(=O)OC2)cc1
Ans: > 30 µM

Q: So what AC50 did CO[C@H]1C[C@@H]2CC[C@@H](C)[C@@](O)(O2)C(=O)C(=O)N2CCCC[C@H]2C(=O)O[C@H]([C@H](C)C[C@@H]2CC[C@@H](O)[C@H](OC)C2)CC(=O)[C@H](C)/C=C(\C)[C@@H](O)[C@@H](OC)C(=O)[C@H](C)C[C@H](C)/C=C/C=C/C=C/1C get with Mu-type opioid receptor (Homo sapiens, UniProt P35372)?
Ans: > 30 µM

Q: Item Clc1ccc(C(OCCN2CCCCC2)c2ccccc2)cc1 (stereo unspecified) with Mu-type opioid receptor (Homo sapiens, UniProt P35372) - AC50?
Ans: 13.6 µM

Q: Which measured AC50 belongs to CC(=O)[C@@]1(O)CC[C@H]2[C@@H]3C=C(C)C4=CC(=O)CC[C@]4(C)[C@H]3CC[C@@]21C , tested on Mu-type opioid receptor (Homo sapiens, UniProt P35372)?; further: assay procedure not described here
Ans: > 30 µM

Q: Can you look up AC50 on Mu-type opioid receptor (Homo sapiens, UniProt P35372) for N=c1ccn2c(n1)O[C@H]1[C@H](O)[C@@H](CO)O[C@H]12 ?
Ans: > 30 µM

Q: What AC50 appears in the records for this compound with Mu-type opioid receptor (Homo sapiens, UniProt P35372)? CCN(CC)CCOC(=O)C(c1ccccc1)C1CCCCC1 (stereo unspecified)
Ans: 25.3 µM

Q: For Mu-type opioid receptor (Homo sapiens, UniProt P35372), provide AC50 of CCC1=C(C)CN(C(=O)NCCc2ccc(S(=O)(=O)NC(=O)N[C@H]3CC[C@H](C)CC3)cc2)C1=O [GLIMEPIRIDE] please.
Ans: > 30 µM

Q: Request: AC50, test system Mu-type opioid receptor (Homo sapiens, UniProt P35372), entry CC1=C(/C=C/C(C)=C/C=C/C(C)=C/C=C/C=C(C)/C=C/C=C(C)/C=C/C2=C(C)CCCC2(C)C)C(C)(C)CCC1; further: assay procedure not described here
Ans: > 30 µM

Q: Look up AC50 with Mu-type opioid receptor (Homo sapiens, UniProt P35372) for this compound: COc1cc2c3cc1Oc1cc(ccc1O)C[C@@H]1c4c(cc(OC)c(O)c4Oc4ccc(cc4)C[C@@H]3N(C)CC2)CC[N+]1(C)C
Ans: 24.1 µM

Q: # get_value(readout= AC50, system= Mu-type opioid receptor (Homo sapiens, UniProt P35372)) for CC(C)(S)[C@@H](N)C(=O)O; further: assay procedure not described here
Ans: > 30 µM

Q: Give AC50 (Mu-type opioid receptor (Homo sapiens, UniProt P35372)) of the following compound: CN1CCN(C2=Nc3ccccc3Sc3ccc(Cl)cc32)CC1
Ans: 1.1 µM

Q: Checklist item: AC50 tested on Mu-type opioid receptor (Homo sapiens, UniProt P35372), entry CCC(=O)NCC[C@@H]1CCc2ccc3c(c21)CCO3 , value?; further: assay procedure not described here
Ans: > 30 µM

Q: Quick check: AC50 on Mu-type opioid receptor (Homo sapiens, UniProt P35372), item COC(c1ccccc1)(c1ccccc1)[C@H](Oc1nc(C)cc(C)n1)C(=O)O ?
Ans: > 30 µM

Q: Please provide the recorded AC50 for N[C@H]1C(O)O[C@H](CO)[C@@H](O)[C@@H]1O (stereo partly specified) , tested on Mu-type opioid receptor (Homo sapiens, UniProt P35372). Further: assay procedure not described here.
Ans: > 30 µM

Q: Please state recorded AC50 (tested on Mu-type opioid receptor (Homo sapiens, UniProt P35372)) of O=C(Oc1ccc2c(c1)CCCN2C(=O)C(Cl)Cl)c1ccco1 [QUINFAMIDE]; further: assay procedure not described here
Ans: > 30 µM

====

Biological target: 5-hydroxytryptamine receptor 3A (Homo sapiens, UniProt P46098); further: assay procedure not described here
Sequence (P46098 whole entry): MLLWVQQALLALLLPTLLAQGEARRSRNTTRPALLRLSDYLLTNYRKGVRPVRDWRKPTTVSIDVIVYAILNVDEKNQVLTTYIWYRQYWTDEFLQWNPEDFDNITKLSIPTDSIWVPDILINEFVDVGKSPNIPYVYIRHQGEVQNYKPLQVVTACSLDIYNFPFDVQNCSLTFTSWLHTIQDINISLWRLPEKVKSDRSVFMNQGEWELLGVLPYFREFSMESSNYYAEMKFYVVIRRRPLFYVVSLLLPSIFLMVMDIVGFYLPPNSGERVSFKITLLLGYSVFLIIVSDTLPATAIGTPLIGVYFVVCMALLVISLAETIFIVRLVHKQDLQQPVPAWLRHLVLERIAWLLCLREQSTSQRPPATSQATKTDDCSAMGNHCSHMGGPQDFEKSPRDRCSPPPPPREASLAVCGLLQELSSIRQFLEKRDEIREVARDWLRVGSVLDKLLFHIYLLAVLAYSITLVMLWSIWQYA
Assay type: functional
Kindly state AC50 for each of the entries shown.

Q: Notebook: pull reported AC50 for 5-hydroxytryptamine receptor 3A (Homo sapiens, UniProt P46098), entry CC(=O)Nc1ccc(O)cc1
Ans: > 30 µM

Q: Form: Entry = CC/C(=C(\c1ccccc1)c1ccc(OCCN(C)C)cc1)c1ccccc1 | System = 5-hydroxytryptamine receptor 3A (Homo sapiens, UniProt P46098) | AC50 = ____; further: assay procedure not described here
Ans: > 30 µM

Q: Param readout = AC50; param system = 5-hydroxytryptamine receptor 3A (Homo sapiens, UniProt P46098); param query = CC[C@H]1OC(=O)[C@H](C)[C@@H](O[C@H]2C[C@@](C)(OC)[C@@H](O)[C@H](C)O2)[C@H](C)[C@@H](O[C@@H]2O[C@H](C)C[C@H](N(C)C)[C@H]2O)[C@](C)(O)C[C@@H](C)CN(C)[C@H](C)[C@@H](O)[C@]1(C)O ; response: value; further: assay procedure not described here
Ans: > 10 µM

====

target: Alpha-1A adrenergic receptor (Homo sapiens, UniProt P35348); type: functional, cell-based; further: assay procedure not described here
Sequence (P35348 whole entry): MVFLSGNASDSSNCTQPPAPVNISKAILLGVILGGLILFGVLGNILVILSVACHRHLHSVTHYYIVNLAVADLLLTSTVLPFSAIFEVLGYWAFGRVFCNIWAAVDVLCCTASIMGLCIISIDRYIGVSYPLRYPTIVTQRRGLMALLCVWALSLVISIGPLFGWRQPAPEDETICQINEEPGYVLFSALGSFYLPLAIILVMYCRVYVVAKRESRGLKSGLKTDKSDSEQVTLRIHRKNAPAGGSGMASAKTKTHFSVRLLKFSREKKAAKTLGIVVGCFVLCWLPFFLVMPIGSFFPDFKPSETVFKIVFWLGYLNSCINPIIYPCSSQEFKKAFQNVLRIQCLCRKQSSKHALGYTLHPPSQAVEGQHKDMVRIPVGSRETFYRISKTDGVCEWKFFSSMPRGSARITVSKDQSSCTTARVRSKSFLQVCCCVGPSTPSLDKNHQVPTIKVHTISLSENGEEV
I'd be grateful if you could share measured AC50 for these entries.

Q: Look up AC50: O=C1Nc2ccc(Cl)cc2[C@@](C#CC2CC2)(C(F)(F)F)O1
Ans: > 30 µM

Q: Query (molecule): CC(=O)NCCCS(=O)(=O)O [ACAMPROSATE] ; field requested: AC50
Ans: > 30 µM

Q: Data request, read-out AC50, for c1cnc(N2CCN(Cc3ccc4c(c3)OCO4)CC2)nc1
Ans: 23 µM

Q: Returns the measured AC50 for the input molecule. Input: CC(CC1c2ccccc2CCc2ccccc21)CN(C)C (stereo not given)
Ans: 15 µM

Q: Any idea what its AC50 is? The molecule is CCCCCCOc1ccccc1C(N)=O [EXALAMIDE]
Ans: > 30 µM

Q: I'd like to know its AC50. The molecule in question is Cc1c(C(=O)NN2CCCCC2)nn(-c2ccc(Cl)cc2Cl)c1-c1ccc(Cl)cc1
Ans: 11 µM

Q: Entry under review: N[C@@H]1[C@H]2CN(c3nc4c(cc3F)c(=O)c(C(=O)O)cn4-c3ccc(F)cc3F)C[C@@H]12 . Reported AC50?
Ans: > 30 µM

Q: // query AC50 value for entry C#C[C@]1(O)CC[C@H]2[C@@H]3[C@H](C)CC4=C(CCC(=O)C4)[C@H]3CC[C@@]21C
Ans: > 30 µM

Q: // lookup AC50 for CN(C)CCC=C1c2ccccc2C=Cc2ccccc21
Ans: 0.47 µM

Q: Look at this molecule and give its reported AC50. Clc1ccccc1C(c1ccccc1)(c1ccccc1)n1ccnc1
Ans: > 30 µM

Q: Field request: AC50 | item: C[C@@H](O)[C@H]1C(=O)N2C(C(=O)O)=C(S[C@@H]3CN[C@H](C(=O)N(C)C)C3)[C@H](C)[C@H]12
Ans: > 300 µM

Q: What AC50 value was documented for this molecule, CC(=O)OCC(=O)[C@@]12N=C(C)O[C@@H]1C[C@H]1[C@@H]3CCC4=CC(=O)C=C[C@]4(C)[C@H]3[C@@H](O)C[C@@]12C ?
Ans: > 30 µM

Q: Consider the molecule CCCCc1ncc(/C=C(\Cc2cccs2)C(=O)O)n1Cc1ccc(C(=O)O)cc1 and give its measured AC50.
Ans: > 30 µM

Q: Record request: AC50 value, item CN1CCN(C2=Nc3ccccc3Sc3ccc(Cl)cc32)CC1
Ans: 1.2 µM

Q: Using the record for CCCCCNC(=N)N/N=C/c1c[nH]c2ccc(OC)cc12 , report its AC50.
Ans: 2.1 µM

Q: Which AC50 is reported for this molecule? Fc1ccc(C(c2ccccc2)(c2ccccc2F)n2ccnc2)cc1 (stereo not given)
Ans: > 30 µM

Q: Find the recorded AC50 belonging to CN1CCN(CC/C=C2/c3ccccc3Sc3ccc(S(=O)(=O)N(C)C)cc32)CC1 and report it.
Ans: 0.31 µM

Q: I'd like to know its AC50. The molecule in question is CCCc1nc(C(C)(C)O)c(C(=O)OCc2oc(=O)oc2C)n1Cc1ccc(-c2ccccc2-c2nnn[nH]2)cc1
Ans: > 30 µM

Q: Which AC50 reading was recorded for the molecule CC/C(=C(\c1ccccc1)c1ccc(OCCN(C)C)cc1)c1ccccc1 ?
Ans: > 30 µM

Q: AC50 lookup needed for Nc1ccn([C@H]2CC[C@@H](CO)O2)c(=O)n1 , thanks.
Ans: > 30 µM

Q: # lookup: AC50 of CC(=O)Nc1ccc(O)cc1
Ans: > 30 µM

Q: For the molecule shown here, CCN(CC)C(=O)N[C@H]1C[C@@H]2c3cccc4[nH]cc(c34)C[C@H]2N(C)C1 [TERGURIDE] , give the reported AC50.
Ans: 1.1 µM

Q: Bench note: what AC50 did Nc1nc(NC2CC2)c2ncn([C@H]3C=C[C@@H](CO)C3)c2n1 show?
Ans: > 30 µM

Q: For COCCCN1CCC(NC(=O)c2cc(Cl)c(N)c3c2OCC3)CC1 [PRUCALOPRIDE] , what is its reported AC50?
Ans: 15 µM

Q: Name the recorded AC50 for CN(C)CC/C=C1\c2ccccc2CSc2ccccc21 [DOTHIEPIN] .
Ans: 0.87 µM

Q: Which value of AC50 has been reported for CCOC(=O)[C@H](CCc1ccccc1)N[C@@H](C)C(=O)N1[C@H](C(=O)O)C[C@@H]2CCC[C@@H]21 in the records?
Ans: > 30 µM

Q: # get_value(readout='AC50', item= C=CCc1ccccc1OCC(O)CNC(C)C (stereo not given) )
Ans: 7.53 µM

Q: Give its AC50 value. Item: CS(=O)(=O)c1ccc(C2=C(c3ccccc3)C(=O)OC2)cc1
Ans: > 30 µM

Q: Which value of AC50 has been reported for C=CCN1CCCC1CNC(=O)c1cc(S(N)(=O)=O)cc(OC)c1OC (stereo not given) [VERALIPRIDE] in the records?
Ans: > 30 µM

Q: Entry under review: Cc1oc(=O)oc1CN1CCN(c2cc3c(cc2F)c(=O)c(C(=O)O)c2n3C(C)S2)CC1 (stereo not given) . Reported AC50?
Ans: > 30 µM
